# Assay summary: Protection index, ratio of TD50 for neurotoxicity in ip dosed Kunming mouse to ED50 for anticonvulsant activity in ip dosed MES-induced Kunming mouse
# Format: toxicity, organism-based
# Condition context: in vivo, read-out: TI
Measured endpoint: selectivity ratio

- CCCCCSc1nnc(COc2ccc(-n3cnnc3)cc2)o1: 22.5
- CCCCCCSc1nnc(COc2ccc(-n3cnnc3)cc2)o1: 14.4
- CCCCCSc1nnc(COc2ccc3c(c2)CCC(=O)N3)o1: 64.6
- CCCCCCSc1nnc(COc2ccc3c(c2)CCC(=O)N3)o1: 44.7
- CCCCCSc1nnc(COc2ccc(NC(C)=O)cc2)o1: 17.2
- O=C1CCc2cc(OCc3nnc(SCc4ccc(C(F)(F)F)cc4)o3)ccc2N1: 16.2
- NC(=O)N1c2ccccc2C=Cc2ccccc21 [CARBAMAZEPINE]: 6.4
- CCCCCCSc1nnc(COc2ccc(NC(C)=O)cc2)o1: 20.1
